This section presents compounds with their documented IC50 values.
target_or_system: TMPRSS2 (Homo sapiens)
Sequence (O15393 106-492 limits assumed): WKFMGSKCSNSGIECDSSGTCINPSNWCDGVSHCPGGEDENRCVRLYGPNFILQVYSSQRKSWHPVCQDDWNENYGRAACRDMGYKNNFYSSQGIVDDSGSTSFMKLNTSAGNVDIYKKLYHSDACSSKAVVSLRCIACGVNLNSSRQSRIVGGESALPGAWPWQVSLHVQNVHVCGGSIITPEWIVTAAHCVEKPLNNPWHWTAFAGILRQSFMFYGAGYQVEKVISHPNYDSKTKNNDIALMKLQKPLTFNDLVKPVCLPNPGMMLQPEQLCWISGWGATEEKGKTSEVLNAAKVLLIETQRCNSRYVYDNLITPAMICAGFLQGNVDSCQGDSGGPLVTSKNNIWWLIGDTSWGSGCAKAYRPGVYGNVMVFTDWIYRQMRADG
method_description: Fluorogenic kinetic enzyme inhibitor assay, TMPRSS2
Format: biochemical
Parameters: purchased Cusabio Technology CSB-YP023924HU
particulars: read-out: TMPRSS2 IC50
Value expressed in nM; do not type the unit.

Example results:
- smiles_text: "N=C(N)NCCC[C@H](NC(=O)[C@H](Cc1cn(Cc2ccccc2)cn1)NC(=O)OCC1c2ccccc2-c2ccccc21)C(=O)c1nc2ccccc2s1"
  recorded_measurement: 68.7
- smiles_text: "CC(=O)N[C@@H](CO)C(=O)NCc1ccc(CC(=O)N[C@@H](CC(C)C)C(=O)N[C@@H](CCCNC(=N)N)C(=O)c2nc3ccccc3s2)cc1"
  recorded_measurement: 0.376
- smiles_text: "CC(=O)N[C@@H](Cc1c[nH]c2ccccc12)C(=O)N[C@@H](Cc1ccccc1)C(=O)N[C@@H](CCCNC(=N)N)C(=O)c1nc2ccccc2s1"
  recorded_measurement: 0.388
- smiles_text: "CC(=O)N[C@@H](Cc1ccccc1)C(=O)N[C@@H](CC(C)C)C(=O)N[C@@H](Cc1ccccc1)C(=O)N[C@@H](CCCNC(=N)N)C(=O)c1nc2ccccc2s1"
  recorded_measurement: 3
- smiles_text: "N=C(N)NCCC[C@H](NC(=O)[C@H](CCCCNC(=O)OCc1ccccc1Cl)NC(=O)OCC1c2ccccc2-c2ccccc21)C(=O)c1nc2ccccc2s1"
  recorded_measurement: 283

API: the following record is the query input.
Which IC50 reading was recorded for the compound CC(=O)NCC(=O)N[C@@H](CCC(N)=O)C(=O)N[C@@H](Cc1ccccc1)C(=O)N[C@@H](CCCNC(=N)N)C(=O)c1nc2ccccc2s1 ?
0.03

---

This section presents compounds with their documented pIC50 values.
target_or_system: matriptase (Homo sapiens, UniProt Q9Y5Y6)
Construct: purchased R&D Systems 3946-SEB-010
Sequence (Q9Y5Y6 615-855 limits assumed): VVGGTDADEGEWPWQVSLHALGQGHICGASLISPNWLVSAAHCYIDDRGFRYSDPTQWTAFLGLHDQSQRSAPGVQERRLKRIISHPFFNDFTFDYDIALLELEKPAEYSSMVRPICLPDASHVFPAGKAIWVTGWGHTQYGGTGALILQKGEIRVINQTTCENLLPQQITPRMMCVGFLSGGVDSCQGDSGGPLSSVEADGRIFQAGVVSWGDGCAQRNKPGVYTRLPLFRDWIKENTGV
method_description: Fluorogenic kinetic enzyme inhibitor assay, matriptase
Assay type: biochemical
particulars: read-out: Matriptase IC50
As a rule, pIC50 stands for the negative log10 of the concentration, concentration in M.

- smiles_text: "CC(=O)N[C@@H](CCCCN)C(=O)N[C@@H](CCC(N)=O)C(=O)N[C@@H](CC(C)C)C(=O)N[C@@H](CCCNC(=N)N)C(=O)c1nc2ccccc2s1"
  recorded_measurement: 8.96
- smiles_text: "CN(C)[C@@H](CCC(N)=O)C(=O)N[C@@H](Cc1ccccc1)C(=O)N[C@H](CCCNC(=N)N)C(=O)c1nc2ccccc2s1"
  recorded_measurement: 6.84
- smiles_text: "N=C(N)NCCC[C@H](NC(=O)[C@H](CCc1ccccc1)NC(=O)OCC1c2ccccc2-c2ccccc21)C(=O)c1nc2ccccc2s1"
  recorded_measurement: 7.32
- smiles_text: "N=C(N)NCCC[C@H](NC(=O)[C@H](Cc1ccccc1)NC(=O)OCC1c2ccccc2-c2ccccc21)C(=O)c1nc2ccccc2s1"
  recorded_measurement: 5.59
- smiles_text: "CC(=O)N[C@@H](CO)C(=O)N[C@@H](CCCCN)C(=O)N[C@@H](CC(C)C)C(=O)N[C@@H](CCCNC(=N)N)C(=O)c1nc2ccccc2s1"
  recorded_measurement: 8.21

API: the following record is the query input.
Which pIC50 reading was recorded for the compound CC(=O)N[C@@H](CCCCNC(=N)N)C(=O)N[C@@H](CCC(C)C)C(=O)N[C@@H](CCCNC(=N)N)C(=O)c1nc2ccccc2s1 ?
8.97

Attribution: patent US20250171495A1
